# experimental.target: TBC1D23 C-terminal domain K672A (mouse, UniProt Q8K0F1 559-677, K672A)
# Sequence (Q8K0F1 559-677 K672A): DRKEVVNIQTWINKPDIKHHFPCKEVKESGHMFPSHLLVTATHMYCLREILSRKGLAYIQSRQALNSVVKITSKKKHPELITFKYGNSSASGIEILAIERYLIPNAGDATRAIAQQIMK
# experimental.protocol: ITC
outcome.measure: pKd
The read-out pKd is expressed as -log10 of concentration in moles per litre.

Fill in: pKd of DDNTLYHRGFTED [syntaxin-16 (209–221) peptide] is ___
4.56
